Experiment: folding stability dG unfold from trypsin proteolysis; higher = more stable
Rule: folding stability dG unfold under 1 kcal/mol gives False, otherwise True.

Reference set, count: 3
SEQUENCE_TEXT	ASSIGNED_CATEGORY
SAGGSAGGSAGGVIVLKSDNSVIIITKKVYTENGKPKKTIIEKKNLKKKPPKPLSIEIISAGGSAGGSAGGS [r10_1043_JUSTAS]	False
PMIAPARLPDGSQTVSIFNANGELLVEAVVENDPELIEEAIEKLFEALPNIKPEELHVSVSDPETGESREIS [r1_55_TrMRF]	True
SANTRSIPFPGSADDIVDEIKNLIDANPDVKIRIQPMDGEEYEIDIEGIEKIKVERMPDGWYMITVELPSAG [r14_807_TrROS]	False

Textbook exercise: given the entry SAGGSAGGSAGGALLVTPTPDGYIARVKDPNSDSWTVVPLSPEELEELAAAGVPTVEVLPSAGGSAGGSAGG [r7_266_JUSTAS] , state whether its folding stability dG unfold is greater than or equal to 1 kcal/mol.
False

Textbook exercise: given the entry SAGGSEEKVFEFEVVEVTSVEVKEDGTVTIEVTVRLENGLLLTVRVTFDLATNEVTIEVELRPLPESAGGSA [r2_321_TrROS_Hall] , state whether its folding stability dG unfold is greater than or equal to 1 kcal/mol.
True

Textbook exercise: given the entry SKKIKIILRYPDGWYVKAEMEVPNGKERDIWFPNPEEAIEWAKTIARQFNPGVEIEDIETVPPDDLPPNFSA [r9_137_TrROS] , state whether its folding stability dG unfold is greater than or equal to 1 kcal/mol.
True

Textbook exercise: given the entry SAGGSAGGSAGGKPKYKIVEIKYDKETKTVTLKIKLENGETVEITVPPGTSLEDILKALSAGGSAGGSAGGS [r10_984_TrROS_Hall] , state whether its folding stability dG unfold is greater than or equal to 1 kcal/mol.
True

----------
Test: folding stability dG unfold from trypsin proteolysis; higher = more stable
Kindly state folding stability dG unfold for each of the entries shown.
One number for each entry, in kcal/mol.

These solved cases illustrate the format of a correct answer.
SEQUENCE_TEXT	folding stability dG unfold / kcal/mol
SAGGSAKPKITITVTYDKETNTVTVTITFPDGTTLTITVEAETEEEAKKAAKKLVEELLKKLEELESAGGSA [r15_477_TrROS_Hall]	3.46
SAGGSAMLPDEVTVKPVEMPVPPDLTLEELEQEVRERAGPGTSVEVSYDPATGVATVTVTDARPALSAGGSA [r15_749_JUSTAS]	-0.162
SAGGMEPPPMLLLVIEIENEDGEKLRIVVPLEDLEEVLKALGLSKEEVRIKKIEVVPLTDEQLKELLESAGG [r13_850_TrROS_Hall]	3.43
SAGGSAGGSAGGSSSLPLSTGTIPLEELEAQGGPIVEVTVLLFSGSSNRTIVMDLPPELVSAGGSAGGSAGG [r7_116_JUSTAS]	-0.372
SAGGSAGGSEMEVKVTVEPAPAGAPPGAVVRVEVEFEDGFRITVRFTFVDGKLRAEVTEIKPVSAGGSAGGS [r12_1049_TrROS_Hall]	2.92
SAGGKTIPIWFRVPPGMTPEEAADELADEIANELQQQNGKEIEIKIDDVEPNPNGWNIVRIKIEVDPSAGGS [r8_156_TrROS]	0.176

Report folding stability dG unfold for each item below.
1. SAGGSAGGSAGGGSPIPTTTLTTVTYGSSSSLLSSAKGPSSVPYSLPSSLGSSVSTTVVGSAGGSAGGSAGG [r7_141_JUSTAS]
2. SAGMTEVAKEIADTLAEQFPPGYKIDDIKVQPLPDNMFRVPITIKRRDPNGKPRGPRQIEIWIPPEQFSAGG [r19_28_TrROS]
3. SGATLFIGRFPGEGTLIAVAKLPNGKEIVISFGNYPEGIAGIAALARELDPRAEIKHIELVPPDSVPPEFSA [r9_137_TrMRF]
4. SAGGSKYPIEVTDPENGNPVLLEDVESLASVTQEEPGDGRSLYTATVPETGEPVFLTSPEKLAAALSSAGGS [r8_206_JUSTAS]
5. SAGGSAKPKIEIEVEKLEGVKEGDTIEVKIKFPNGFIIKIEAKVKRVDGKLVIEVTKVEVIPKEDLSAGGSA [r15_636_TrROS_Hall]
6. SAGGNKNGKPKPTVPFKIMVMKPKPRRNDNNGQEEPRYDMRPVEIEFPLGEEIDLEEALENPDYIFIMSAGG [r13_753_TrROS]
7. SAGGNRIMFIVNSPEEAERFANFIRKHLPPGMNLEIEIEPFPLKDNVPPDDPDYKNQPVYMVHITIPSAGGS [r16_795_TrROS]

[-0.911, 0.755, 1.37, 0.593, 2.7, -0.0176, 3]

Report folding stability dG unfold for each item below.
1. SAGGGITITLPDGSVIEIEPVSTFTNEDGQPVTKIKATLTDPVTGTSVEADIYLFPDGGVKIDLKPGSAGGS [r16_651_TrMRF]
2. SAGSVETFEDPEVGRVVIVPLPGGEVLTIELPPDSITMTLTSPKGGESVTITKKMKPGEEEELIKELASSAG [r5_820_JUSTAS]
3. SAGGKLTLELEFELEDGLRVRLRVEVDEDGELRVTLEVEPEPPPPPIRVVKNEDGSEYVYRNGKLYKLSAGG [r13_151_TrROS_Hall]

2.3
-0.521
3.55

Report folding stability dG unfold for each item below.
1. SAGGSAGGSAGGSKNKKIKLGPEVKIKVKIEAKLEGGYSSENGLPEFKLDVKLEIGEVESAGGSAGGSAGGS [r10_877_TrMRF]
2. SAGGSAGGSMTPANVVRIEPSPDGILRVTLTHPDGTVTTVEVSPDNLDIGAPDNVTDVTLAPVSAGGSAGGS [r20_194_TrMRF]
3. SAGGSAGGSMTFRVEVFNKKTGKVETIEVEGSLDELKALAPPGALVKIEVDGKTITIPAEELKSAGGSAGGS [r20_36_TrROS_Hall]

1. 0.727
2. 0.932
3. 1.67

Report folding stability dG unfold for each item below.
1. SAGGMTKTILIYDEETGVLVRIEIKVNPETGEIEEIKIETETLEDGTVKMKITLKDGTEIEVEIKPLPSAGG [r13_515_TrROS_Hall]
2. SAGGSAGGSAGGSPPNMEPVETQEYQIGNDFIIKVDTYRMPDPDMYFVDIEITPDALKASAGGSAGGSAGGS [r4_163_TrROS]

3.45
0.82

Report folding stability dG unfold for each item below.
1. STKLLPFEEALKEAEKAIKEGKKKVNITIYTPDGKTFNLTDVEKVKEFIEKEFPGISLSELTVTVSITPPES [r1_325_JUSTAS]
2. SAGPKNREIKVRIQFNGNWVEYKMPDNDLKELVKNGGLQIAGVDPEKDEIMIQIPVPPPKPDPEDGKPKSAG [r5_868_TrROS]
3. SAGGSAGGSMVTIPTGTEEEVEKVIAELEKKGLKPKKVEKEGNKVTVEFPDGTKVELIIEPGKSAGGSAGGS [r20_93_JUSTAS]
4. SKKKTLKIVDKETNVVIEMTAEELAEKLGLSVEDLEIEVVDLKTKEVKTIKIKLPKPKPEEKKKVKEEEKSA [r9_819_TrROS_Hall]
5. SAGGSAGGSKTLIIKIKVEGLSEEEIAEELAKKLQEETGLKIKSVKIEKKDGYLYIEVEVEEPSAGGSAGGS [r12_781_TrROS_Hall]
6. SMPIEVRVDLERLEDGTLLAVIEIRHPDVQVAEDAAIELARELFPEDVELRIETTPDGRVIAPILLPLPESA [r9_646_TrMRF]

1. 2.86
2. -0.0867
3. 1.06
4. -0.336
5. 3.86
6. 3.14

----------
Assay: folding stability dG unfold from trypsin proteolysis; higher = more stable
MEASURED_PROPERTY: folding stability dG unfold (kcal/mol)
Answers are plain numbers, in kcal/mol.

SEQUENCE_TEXT	folding stability dG unfold [kcal/mol]
SAGGSAGGSEVKVLVYPPKGPPRLFADDVPIETLVAQFTAEDPPEPLVLVTKEEAEKLGFPLESAGGSAGGS [r12_379_TrMRF]	0.435
SAGGMTIKPGETVEIEVGGKKITLTRNENGELTITIEDEETGETLTITVPKDTTLEEVLKKIEELLKSAGGS [r8_158_TrROS_Hall]	4.04
SAGGSAGGSEEKKIKIKIKIERDPENPNTYRITIEDEETGERYELEITVPPPKPKVFFFPKKKSAGGSAGGS [r12_985_TrROS_Hall]	2.24

Report folding stability dG unfold for each item below.
1. SALEIEIEQDEDGNMRISVYLPGWKPIEEQPVPPGDGMKTFIIKLPDRVLMITFTNGGIEPNPVPLNDISAG [r14_403_TrROS]
2. SAEVRVEIVEVDEERGVIRIEITVPEDLPEEEILEELARRLEELARERGYEVRIERREDGTYRIEIRFPSAG [r14_865_TrROS_Hall]
3. SAGGSAGGSAGGMRRVTIWFPIPEDEEITFKLPGNGVEVEIEPDKGNGFFRITVYLPDGSAGGSAGGSAGGS [r10_1138_TrROS]

1. 2.44
2. 4.18
3. 1.42

folding stability dG unfold for SAGGEYTVVSVLEERKDPATGKTVTLELLKDPNSNVLYRRVTTTDPANPDVVTTTLYDAAGNKVSTVSSAGG [r13_658_JUSTAS] ?
2.17

Ref: the supplement of paper PMC12764529
